Here the recorded shrunken log2 fold change is given for each entry.
System: Escherichia coli TOP10
Assay: shrunken log2 fold change of peptide-encoding DNA abundance (4.5 h post-induction vs induction); higher = less antimicrobial activity (less host growth inhibition)
Settings: time post-induction: 4.5 h; library: site-saturation at positions 5, 18, 19, 20

residueString: RRIRSRPPRLPRPRPRPLCFPRP
targetDesc: Escherichia coli TOP10
shrunken log2 fold change: -0.0528
--
residueString: RRIRDRPPRLPRPRPRPCFVPRP
targetDesc: Escherichia coli TOP10
shrunken log2 fold change: 0.0784
--
residueString: RRIRCRPPRLPRPRPRPPWGPRP
targetDesc: Escherichia coli TOP10
shrunken log2 fold change: 0.122
--
residueString: RRIRSRPPRLPRPRPRPDIVPRP
targetDesc: Escherichia coli TOP10
shrunken log2 fold change: 0.252
--
residueString: RRIRMRPPRLPRPRPRPVWVPRP
targetDesc: Escherichia coli TOP10
shrunken log2 fold change: 0.0789
--
residueString: RRIRCRPPRLPRPRPRPDDPPRP
targetDesc: Escherichia coli TOP10
shrunken log2 fold change: 0.0647
--
residueString: RRIRNRPPRLPRPRPRPWADPRP
targetDesc: Escherichia coli TOP10
shrunken log2 fold change: -0.124
--
residueString: RRIRERPPRLPRPRPRPTDNPRP
targetDesc: Escherichia coli TOP10
shrunken log2 fold change: -0.841
--
residueString: RRIRPRPPRLPRPRPRPKGNPRP
targetDesc: Escherichia coli TOP10
shrunken log2 fold change: -0.097
--
residueString: RRIRKRPPRLPRPRPRPSSEPRP
targetDesc: Escherichia coli TOP10
shrunken log2 fold change: 0.2
--
residueString: RRIRWRPPRLPRPRPRPKTYPRP
targetDesc: Escherichia coli TOP10
shrunken log2 fold change: -0.421
--
residueString: RRIRMRPPRLPRPRPRPIAKPRP
targetDesc: Escherichia coli TOP10
shrunken log2 fold change: 0.494
--
residueString: RRIRPRPPRLPRPRPRPFCHPRP
targetDesc: Escherichia coli TOP10
shrunken log2 fold change: -0.00162
--
residueString: RRIRKRPPRLPRPRPRPVHFPRP
targetDesc: Escherichia coli TOP10
shrunken log2 fold change: -0.0637
--
residueString: RRIRMRPPRLPRPRPRPDDIPRP
targetDesc: Escherichia coli TOP10
shrunken log2 fold change: -0.00151
--
residueString: RRIRLRPPRLPRPRPRPGRQPRP
targetDesc: Escherichia coli TOP10
shrunken log2 fold change: 0.207
--
residueString: RRIRDRPPRLPRPRPRPFNQPRP
targetDesc: Escherichia coli TOP10
shrunken log2 fold change: -0.733
--
residueString: RRIRFRPPRLPRPRPRPPFVPRP
targetDesc: Escherichia coli TOP10
shrunken log2 fold change: -0.0145
--
residueString: RRIRGRPPRLPRPRPRPDCIPRP
targetDesc: Escherichia coli TOP10
shrunken log2 fold change: 0.799
--
residueString: RRIRSRPPRLPRPRPRPRIPPRP
targetDesc: Escherichia coli TOP10
shrunken log2 fold change: -0.179
--
residueString: RRIRLRPPRLPRPRPRPFFLPRP
targetDesc: Escherichia coli TOP10
shrunken log2 fold change: -0.282
--
residueString: RRIRVRPPRLPRPRPRPSCQPRP
targetDesc: Escherichia coli TOP10
shrunken log2 fold change: -0.643
--
residueString: RRIRVRPPRLPRPRPRPAPRPRP
targetDesc: Escherichia coli TOP10
shrunken log2 fold change: 0.634
--
residueString: RRIRIRPPRLPRPRPRPPNVPRP
targetDesc: Escherichia coli TOP10
shrunken log2 fold change: 0.0421
--
residueString: RRIRFRPPRLPRPRPRPFFAPRP
targetDesc: Escherichia coli TOP10
shrunken log2 fold change: 0.424
--
residueString: RRIRIRPPRLPRPRPRPDLCPRP
targetDesc: Escherichia coli TOP10
shrunken log2 fold change: -0.101
--
residueString: RRIRIRPPRLPRPRPRPHDLPRP
targetDesc: Escherichia coli TOP10
shrunken log2 fold change: -0.057
--
residueString: RRIRCRPPRLPRPRPRPRNNPRP
targetDesc: Escherichia coli TOP10
shrunken log2 fold change: -0.282
--
residueString: RRIRNRPPRLPRPRPRPGSMPRP
targetDesc: Escherichia coli TOP10
shrunken log2 fold change: -0.225
--
residueString: RRIRTRPPRLPRPRPRPKLVPRP
targetDesc: Escherichia coli TOP10
shrunken log2 fold change: 0.016
--
residueString: RRIRVRPPRLPRPRPRPTKKPRP
targetDesc: Escherichia coli TOP10
shrunken log2 fold change: -0.0633

====

System: Escherichia coli TOP10;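 note: peptides expressed intracellularly from a pBAD plasmid library in pooled LB shake-flask culture, induced with 0.3% L-arabinose, DNA abundance read by NGS, three biological replicates, DESeq2 with apeglm shrinkage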
Assay: shrunken log2 fold change of peptide-encoding DNA abundance (4.5 h post-induction vs induction); higher = less antimicrobial activity (less host growth inhibition)
Conditions: time post-induction: 4.5 h; library: site-saturation at positions 5, 18, 19, 20
Outcome: Yes for shrunken log2 fold change of at least 0.1; No for anything lower.

residueString: RRIRRRPPRLPRPRPRPRNQPRP
categoryLabel: No
--
residueString: RRIRWRPPRLPRPRPRPHKNPRP
categoryLabel: No
--
residueString: RRIRVRPPRLPRPRPRPWQGPRP
categoryLabel: No
--
residueString: RRIRVRPPRLPRPRPRPNSAPRP
categoryLabel: Yes
--
residueString: RRIRIRPPRLPRPRPRPMQDPRP
categoryLabel: No
--
residueString: RRIRVRPPRLPRPRPRPEFFPRP
categoryLabel: Yes
--
residueString: RRIRSRPPRLPRPRPRPDEEPRP
categoryLabel: Yes
--
residueString: RRIRVRPPRLPRPRPRPPKPPRP
categoryLabel: Yes
--
residueString: RRIRCRPPRLPRPRPRPMIAPRP
categoryLabel: Yes
--
residueString: RRIRWRPPRLPRPRPRPSCSPRP
categoryLabel: No
--
residueString: RRIRWRPPRLPRPRPRPNFRPRP
categoryLabel: Yes
--
residueString: RRIRQRPPRLPRPRPRPRHWPRP
categoryLabel: Yes
--
residueString: RRIRNRPPRLPRPRPRPATSPRP
categoryLabel: No
--
residueString: RRIRLRPPRLPRPRPRPFLVPRP
categoryLabel: No
--
residueString: RRIRFRPPRLPRPRPRPTRGPRP
categoryLabel: Yes
--
residueString: RRIRGRPPRLPRPRPRPYSNPRP
categoryLabel: No
--
residueString: RRIRIRPPRLPRPRPRPLTNPRP
categoryLabel: No
--
residueString: RRIRCRPPRLPRPRPRPMTFPRP
categoryLabel: No
--
residueString: RRIRYRPPRLPRPRPRPRYWPRP
categoryLabel: No
--
residueString: RRIRKRPPRLPRPRPRPRHSPRP
categoryLabel: Yes
--
residueString: RRIRLRPPRLPRPRPRPWMSPRP
categoryLabel: No
--
residueString: RRIRRRPPRLPRPRPRPSTAPRP
categoryLabel: Yes
--
residueString: RRIRPRPPRLPRPRPRPIYHPRP
categoryLabel: No
--
residueString: RRIRERPPRLPRPRPRPSQLPRP
categoryLabel: No
--
residueString: RRIRDRPPRLPRPRPRPIPPPRP
categoryLabel: Yes
--
residueString: RRIRYRPPRLPRPRPRPRRTPRP
categoryLabel: No
--
residueString: RRIRVRPPRLPRPRPRPAAHPRP
categoryLabel: No
--
residueString: RRIRDRPPRLPRPRPRPPDKPRP
categoryLabel: Yes
--
residueString: RRIRYRPPRLPRPRPRPNYFPRP
categoryLabel: No
--
residueString: RRIRYRPPRLPRPRPRPNQIPRP
categoryLabel: No
--
residueString: RRIRKRPPRLPRPRPRPMGFPRP
categoryLabel: No
--
residueString: RRIRKRPPRLPRPRPRPAHVPRP
categoryLabel: No
--
residueString: RRIRPRPPRLPRPRPRPGWLPRP
categoryLabel: Yes
--
residueString: RRIRKRPPRLPRPRPRPSLQPRP
categoryLabel: Yes
--
residueString: RRIRPRPPRLPRPRPRPGVYPRP
categoryLabel: No
--
residueString: RRIRMRPPRLPRPRPRPFDGPRP
categoryLabel: Yes
--
residueString: RRIRFRPPRLPRPRPRPRNWPRP
categoryLabel: Yes
--
residueString: RRIRHRPPRLPRPRPRPYNFPRP
categoryLabel: No
--
residueString: RRIRWRPPRLPRPRPRPAVHPRP
categoryLabel: Yes
--
residueString: RRIRDRPPRLPRPRPRPKKKPRP
categoryLabel: No
--
residueString: RRIRCRPPRLPRPRPRPREYPRP
categoryLabel: No
--
residueString: RRIRPRPPRLPRPRPRPVSSPRP
categoryLabel: No
--
residueString: RRIRRRPPRLPRPRPRPECTPRP
categoryLabel: Yes
--
residueString: RRIRYRPPRLPRPRPRPRCWPRP
categoryLabel: Yes
--
residueString: RRIRSRPPRLPRPRPRPYWRPRP
categoryLabel: No
--
residueString: RRIRSRPPRLPRPRPRPFLVPRP
categoryLabel: No
--
residueString: RRIRQRPPRLPRPRPRPVEKPRP
categoryLabel: No
--
residueString: RRIRTRPPRLPRPRPRPCDTPRP
categoryLabel: No
--
residueString: RRIRDRPPRLPRPRPRPKMIPRP
categoryLabel: No
--
residueString: RRIRGRPPRLPRPRPRPITNPRP
categoryLabel: Yes
--
residueString: RRIRGRPPRLPRPRPRPPRAPRP
categoryLabel: Yes
--
residueString: RRIRARPPRLPRPRPRPIAEPRP
categoryLabel: Yes
--
residueString: RRIRDRPPRLPRPRPRPHSEPRP
categoryLabel: No
--
residueString: RRIRKRPPRLPRPRPRPTMEPRP
categoryLabel: Yes
--
residueString: RRIRHRPPRLPRPRPRPNNSPRP
categoryLabel: No
--
residueString: RRIRNRPPRLPRPRPRPLMSPRP
categoryLabel: No
--
residueString: RRIRHRPPRLPRPRPRPDMYPRP
categoryLabel: No
--
residueString: RRIRMRPPRLPRPRPRPQEHPRP
categoryLabel: No
--
residueString: RRIRWRPPRLPRPRPRPAGCPRP
categoryLabel: Yes

All figures here come from the supplement of paper PMC9112550.
